method_notes: pKa of the acidic agrochemically active ingredient
Assay type: physicochemical
Entry flag: yes (1) if pKa reaches 6; no (0) if it does not.

Cc1cccc2sc3nncn3c12    no (0)
CCOP(=O)(Sc1ccccc1)Sc1ccccc1    yes (1)
COC(=O)c1ccccc1CS(=O)(=O)NC(=O)Nc1nc(OC)cc(OC)n1    no (0)

**Q:** Reported pKa at or above 6? COCc1cccc(C(O)c2nc(OC)cc(OC)n2)c1NS(=O)(=O)C(F)F (stereo not drawn)
**A:** no (0)

**Q:** Reported pKa at or above 6? CNC(=O)Oc1ccccc1OC(C)C
**A:** yes (1)

Data credit: patent US7638506B2
